Measured values drawn from patent US8729089B2 for this set.

# procedure-text: CC50 assay (CellTiter-Glo) in Huh-7 HCV replicon cells
# Type: cell-based, human
# run-conditions: human, 3 days incubation, CellTiter-Glo readout
In this section we review reported CC50 at 3 days values for a set of compounds.

Completed entries (count: 7):
>  <compound>
CCOP(=O)(CCNc1nc(NCC(F)(F)F)c2nc(-c3ccc(F)cc3)ccc2n1)OCC

>  <test-result>
5 to 25 µM

$$$$
>  <compound>
CCOc1nc(NCc2ccc(F)cc2)nc2ccc(-c3ccc(NC(=O)CN)cc3)nc12

>  <test-result>
< 5 µM

$$$$
>  <compound>
CCOc1nc(NCc2ccc(F)cc2)nc2ccc(-c3ccc(C(=O)NCCN(C)C)cc3)nc12

>  <test-result>
< 5 µM

$$$$
>  <compound>
NS(=O)(=O)c1ccc(CNc2nc(NCC(F)(F)F)c3nc(-c4ccc(NC(=O)OCCN5CCCC5)cc4)ccc3n2)cc1

>  <test-result>
5 to 25 µM

$$$$
>  <compound>
COCCNc1nc(NC(C)C)c2nc(-c3ccc(F)cc3)ccc2n1

>  <test-result>
< 5 µM

$$$$
>  <compound>
Fc1ccc(-c2ccc3nc(NCc4ccc(-n5cncn5)cc4)nc(NCC(F)(F)F)c3n2)cc1

>  <test-result>
> 25 µM

$$$$
>  <compound>
NS(=O)(=O)c1ccc(CNc2nc(NCC(F)(F)F)c3nc(-c4ccc(N5CCC(O)C5=O)cc4)ccc3n2)cc1 (centres unmarked)

>  <test-result>
> 25 µM

$$$$

We now examine a further compound.
Just so you know, measured CC50 at 3 days for CC(C)(C)OC(=O)N1CC[C@@H](NS(=O)(=O)c2cc(-c3ccc4nc(NCc5ccc(S(N)(=O)=O)cc5)nc(NCC(F)(F)F)c4n3)ccc2F)C1 came out at < 5 µM

###

In this section we review reported CC50 at 3 days values for a set of compounds.
# procedure-text: CC50 assay (CellTiter-Glo) in Huh-7 HCV replicon cells
# Type: cell-based, human
# run-conditions: human, 3 days incubation, CellTiter-Glo readout

Completed entries (count: 3):
>  <compound>
CCOc1nc(NCc2ccc(F)cc2)nc2ccc(-c3ccc(NC(=O)CO)cc3)nc12 [Example 69]

>  <test-result>
> 25 µM

$$$$
>  <compound>
CCOc1nc(NCc2ccc(F)cc2)nc2ccc(-c3ccc(N4CC(O)CC4=O)cc3)nc12 (stereo not shown) [Example 76]

>  <test-result>
5 to 25 µM

$$$$
>  <compound>
CCOc1nc(NCc2ccc(Cl)cc2F)nc2ccc(-c3ccc(F)cc3)nc12 [Example 38]

>  <test-result>
5 to 25 µM

$$$$

Just so you know, measured CC50 at 3 days for Fc1ccc(-c2ccc3nc(NCc4ccc(-c5csnn5)cc4)nc(NCC(F)(F)F)c3n2)cc1 [Example 245] came out at > 25 µM
